# targetUnderTest: PI 4-kinase beta (Homo sapiens, UniProt Q9UBF8)
# Sequence (Q9UBF8 whole entry): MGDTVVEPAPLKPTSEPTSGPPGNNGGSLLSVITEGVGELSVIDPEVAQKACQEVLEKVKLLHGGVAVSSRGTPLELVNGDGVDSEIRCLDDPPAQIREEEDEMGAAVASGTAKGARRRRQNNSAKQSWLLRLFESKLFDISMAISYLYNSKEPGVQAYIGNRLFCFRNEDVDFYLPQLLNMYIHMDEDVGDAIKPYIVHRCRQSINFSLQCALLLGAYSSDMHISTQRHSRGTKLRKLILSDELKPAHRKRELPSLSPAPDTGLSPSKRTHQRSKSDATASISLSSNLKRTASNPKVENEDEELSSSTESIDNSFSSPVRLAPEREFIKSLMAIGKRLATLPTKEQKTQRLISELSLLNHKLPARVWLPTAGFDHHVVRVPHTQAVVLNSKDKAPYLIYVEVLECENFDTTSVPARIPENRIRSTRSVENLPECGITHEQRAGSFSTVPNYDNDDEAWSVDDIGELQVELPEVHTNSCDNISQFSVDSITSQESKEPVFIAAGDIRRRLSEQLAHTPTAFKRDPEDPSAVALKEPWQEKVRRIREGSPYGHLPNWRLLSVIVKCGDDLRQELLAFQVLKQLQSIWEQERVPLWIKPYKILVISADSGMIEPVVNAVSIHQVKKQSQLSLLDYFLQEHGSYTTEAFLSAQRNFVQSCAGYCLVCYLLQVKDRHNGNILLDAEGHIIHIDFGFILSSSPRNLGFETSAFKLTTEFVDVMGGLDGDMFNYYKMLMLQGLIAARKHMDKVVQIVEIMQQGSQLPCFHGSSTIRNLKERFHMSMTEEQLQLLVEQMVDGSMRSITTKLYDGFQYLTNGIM
# measurementNotes: Kinase Glo Luminescent Kinase Assay (Kglo), assay D
# Format: biochemical
# details: read-out: Assay D PI4Kβ IC50
pIC50: −log10 of the molar value.
measuredMetric: pIC50

compound=Cc1ncc(-c2nc(-c3cc(S(=O)(=O)NCCCO)ccc3C)cnc2N)s1 measuredmetric=pIC50 reportedmeasurement=5.72
compound=COC1(C)CN(S(=O)(=O)c2ccc(C)c(-c3cnc(N)c(-c4cn(C)nc4C)n3)c2)C1 measuredmetric=pIC50 reportedmeasurement=5.23

I: Cc1ccc(S(=O)(=O)NC2CCOC2=O)cc1-c1cnc(N)c(-n2cncn2)n1 (centres unmarked)
II: Cc1ncc(-c2nc(-c3cc(S(=O)(=O)N[C@H]4C[C@@H](O)C4)ccc3C)cnc2N)s1 [Example 43a]
Record comparison, field pIC50: mark the lower of I and II . Identify your selection by its label. I
(I: 5.11, II: 5.64)

All figures here come from patent US10004732B2.
